Method description: Cytotoxicity test on Vero E6 cells (CCK8)
Assay type: cell-based
Setup conditions: African green monkey; Vero E6 cells, CCK8 kit
Endpoint label: IC50

Example results:
COc1cc2c3cc1Oc1c(OC)c(OC)cc4c1[C@H](Cc1ccc(cc1)Oc1cc(ccc1C)C[C@H]3N(C)CC2)N(C)CC4    10 to 30 µM
COc1cc2c3cc1Oc1c(OC)c(OC)cc4c1[C@H](Cc1ccc(cc1)Oc1cc(ccc1C#N)C[C@H]3N(C)CC2)N(C)CC4    10 to 30 µM
COc1cc2c3cc1Oc1c(OC)c(OC)cc4c1[C@H](Cc1ccc(cc1)Oc1cc(ccc1C(=O)C1CC1)C[C@H]3N(C)CC2)N(C)CC4    10 to 30 µM
COc1cc2c3cc1Oc1c(OC)c(OC)cc4c1[C@H](Cc1ccc(cc1)Oc1cc(ccc1C(=O)NC15CC6CC(CC(C6)C1)C5)C[C@H]3N(C)CC2)N(C)CC4    5 to 10 µM

Okay, now this compound:
Task: Using known records, supply IC50 for COc1cc2c3cc1Oc1c(OC)c(OC)cc4c1[C@H](Cc1ccc(cc1)Oc1cc(cc5[nH]c(=O)oc15)C[C@H]3N(C)CC2)N(C)CC4
Result: 10 to 30 µM

---

Method description: Cytotoxicity test on Vero E6 cells (CCK8)
Assay type: cell-based
Setup conditions: African green monkey; Vero E6 cells, CCK8 kit
pIC50: −log10 of the molar value.
molecules and their reported pIC50

Task: Return reported pIC50. Input molecule: COc1cc2c3cc1Oc1c(OC)c(OC)cc4c1[C@H](Cc1ccc(cc1)Oc1cc(ccc1C1CC1)C[C@H]3N(C)CC2)N(C)CC4
Result: 4.52 to 5.00

Task: Given COc1cc2c3cc1Oc1c(OC)c(OC)cc4c1[C@H](Cc1ccc(cc1)Oc1cc(ccc1C(C)O)C[C@H]3N(C)CC2)N(C)CC4 (stereo partly drawn) , respond with its pIC50.
Result: 4.30 to 4.52

Task: Name the recorded pIC50 of the molecule listed here: COc1cc2c3cc1Oc1c(OC)c(OC)cc4c1[C@H](Cc1ccc(cc1)Oc1cc(ccc1C(=O)OCCOCCO)C[C@H]3N(C)CC2)N(C)CC4
Result: < 4.30

---

Measured on: hERG potassium channel (Homo sapiens, UniProt Q12809)
Construct: expressed in transfected cells
Sequence (Q12809 whole entry): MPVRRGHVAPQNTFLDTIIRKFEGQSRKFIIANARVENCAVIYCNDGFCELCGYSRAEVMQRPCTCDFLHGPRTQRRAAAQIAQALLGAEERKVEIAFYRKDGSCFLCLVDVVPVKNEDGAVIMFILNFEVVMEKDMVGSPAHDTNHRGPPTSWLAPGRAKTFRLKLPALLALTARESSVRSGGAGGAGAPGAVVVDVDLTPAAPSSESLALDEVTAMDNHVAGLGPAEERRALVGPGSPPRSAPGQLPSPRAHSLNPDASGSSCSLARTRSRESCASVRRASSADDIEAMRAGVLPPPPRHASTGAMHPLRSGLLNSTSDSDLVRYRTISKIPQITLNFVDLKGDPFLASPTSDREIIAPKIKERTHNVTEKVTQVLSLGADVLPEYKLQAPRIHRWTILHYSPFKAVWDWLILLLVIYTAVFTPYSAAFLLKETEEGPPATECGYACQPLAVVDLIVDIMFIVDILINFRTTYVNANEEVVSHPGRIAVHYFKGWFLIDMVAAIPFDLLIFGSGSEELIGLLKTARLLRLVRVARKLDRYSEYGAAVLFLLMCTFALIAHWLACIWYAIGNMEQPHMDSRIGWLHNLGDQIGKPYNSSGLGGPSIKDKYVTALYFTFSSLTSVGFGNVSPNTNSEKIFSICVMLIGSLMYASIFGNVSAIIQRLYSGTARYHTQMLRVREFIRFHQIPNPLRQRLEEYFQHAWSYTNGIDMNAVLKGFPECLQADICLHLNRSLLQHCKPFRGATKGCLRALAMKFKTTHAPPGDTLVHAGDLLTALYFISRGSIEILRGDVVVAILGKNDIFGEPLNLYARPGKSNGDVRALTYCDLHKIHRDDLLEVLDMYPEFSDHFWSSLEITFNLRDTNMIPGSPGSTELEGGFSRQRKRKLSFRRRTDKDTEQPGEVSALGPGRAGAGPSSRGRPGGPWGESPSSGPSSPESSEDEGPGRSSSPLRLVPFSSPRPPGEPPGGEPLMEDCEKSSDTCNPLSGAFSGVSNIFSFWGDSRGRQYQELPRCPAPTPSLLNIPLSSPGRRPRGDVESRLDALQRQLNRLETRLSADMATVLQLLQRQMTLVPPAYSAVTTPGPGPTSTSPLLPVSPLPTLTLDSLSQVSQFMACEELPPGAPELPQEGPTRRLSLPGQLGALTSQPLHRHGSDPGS
Method description: hERG potassium channel whole-cell membrane clamp in CHO cells
Format: cell-based
Setup conditions: CHO cells stably expressing hERG, whole-cell membrane clamp
// values below are reported IC50
Use µM as the unit, but write only the number.

Worked set:
COC(=O)c1ccc2cc1Oc1ccc(cc1)C[C@H]1c3c(cc(OC)c(OC)c3Oc3cc4c(cc3OC)CCN(C)[C@@H]4C2)CCN1C    7
CCCCNC(=O)Oc1ccc2cc1Oc1ccc(cc1)C[C@H]1c3c(cc(OC)c(OC)c3Oc3cc4c(cc3OC)CCN(C)[C@@H]4C2)CCN1C    19
COc1cc2c3cc1Oc1c(OC)c(OC)cc4c1[C@H](Cc1ccc(cc1)Oc1cc(ccc1C#N)C[C@H]3N(C)CC2)N(C)CC4    6.4

Task: Answer with the recorded IC50 of COc1cc2c3cc1Oc1c(OC)c(OC)cc4c1[C@H](Cc1ccc(cc1)Oc1cc(ccc1C(=O)NC1CC1)C[C@H]3N(C)CC2)N(C)CC4 only.
Result: 8.9

Task: Give me measured IC50, please, for this compound: CNC(=O)c1ccc2cc1Oc1ccc(cc1)C[C@H]1c3c(cc(OC)c(OC)c3Oc3cc4c(cc3OC)CCN(C)[C@@H]4C2)CCN1C
Result: 9.4

Task: State, in one line, measured IC50 of COc1cc2c3cc1Oc1c(OC)c(OC)cc4c1[C@H](Cc1ccc(cc1)Oc1cc(ccc1C(=O)OCCOCCO)C[C@H]3N(C)CC2)N(C)CC4
Result: 16.5

Task: Supply reported IC50 belonging to this compound: COc1cc2c3cc1Oc1c(OC)c(OC)cc4c1[C@H](Cc1ccc(cc1)Oc1cc(ccc1C(=O)NC1CCC1)C[C@H]3N(C)CC2)N(C)CC4
Result: 4.5

---

Measured on: hERG potassium channel (Homo sapiens, UniProt Q12809)
Construct: expressed in transfected cells
Method description: hERG potassium channel whole-cell membrane clamp in CHO cells
Assay type: cell-based
Setup conditions: human, CHO cells stably expressing hERG potassium channels, pH 7.4; CHO cells stably expressing hERG, whole-cell membrane clamp
Endpoint label: pIC50
Units for pIC50: none; it is -log10 of a concentration expressed in mol/L.

Task: State its pIC50: COc1cc2c3cc1Oc1c(OC)c(OC)cc4c1[C@H](Cc1ccc(cc1)Oc1cc(ccc1C(N)=O)C[C@H]3N(C)CC2)N(C)CC4
Result: 4.70

---

Measured on: novel coronavirus envelope protein (2-E) ion channel (Severe acute respiratory syndrome coronavirus 2)
Sequence (P0DTC4 whole entry, looked up): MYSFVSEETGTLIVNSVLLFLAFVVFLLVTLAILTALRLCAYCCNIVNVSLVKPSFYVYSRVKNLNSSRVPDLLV
Attribute: IC50

COC(=O)c1ccc2cc1Oc1ccc(cc1)C[C@H]1c3c(cc(OC)c(OC)c3Oc3cc4c(cc3OC)CCN(C)[C@@H]4C2)CCN1C    < 10 µM
CCCCNC(=O)Oc1ccc2cc1Oc1ccc(cc1)C[C@H]1c3c(cc(OC)c(OC)c3Oc3cc4c(cc3OC)CCN(C)[C@@H]4C2)CCN1C    < 10 µM
C=C(C)c1ccc2cc1Oc1ccc(cc1)C[C@H]1c3c(cc(OC)c(OC)c3Oc3cc4c(cc3OC)CCN(C)[C@@H]4C2)CCN1C    < 10 µM

Task: Read off the recorded IC50 for COc1cc2c3cc1Oc1c(OC)c(OC)cc4c1[C@H](Cc1ccc(cc1)Oc1cc(ccc1C(=O)Nc1ccccc1)C[C@H]3N(C)CC2)N(C)CC4
Result: < 10 µM

Task: Give reported IC50 value for COc1cc2c3cc1Oc1c(OC)c(OC)cc4c1[C@H](Cc1ccc(cc1)Oc1cc(ccc1C#N)C[C@H]3N(C)CC2)N(C)CC4
Result: < 10 µM

Task: Answer with the recorded IC50 for the molecule listed here: COc1cc2c3cc1Oc1c(OC)c(OC)cc4c1[C@H](Cc1ccc(cc1)Oc1cc(ccc1CO)C[C@H]3N(C)CC2)N(C)CC4
Result: 10 to 30 µM

---

Method description: Cytotoxicity test on Vero E6 cells (CCK8)
Format: cell-based
Setup conditions: African green monkey; Vero E6 cells, CCK8 kit
pIC50: −log10 of the molar value.
Endpoint label: pIC50

Worked cases, pIC50 given:
COc1cc2c3cc1Oc1c(OC)c(OC)cc4c1[C@H](Cc1ccc(cc1)Oc1cc(ccc1C(N)=O)C[C@H]3N(C)CC2)N(C)CC4 [Compound 4]    < 4.30
C=C(C)c1ccc2cc1Oc1ccc(cc1)C[C@H]1c3c(cc(OC)c(OC)c3Oc3cc4c(cc3OC)CCN(C)[C@@H]4C2)CCN1C [Compound 34]    4.52 to 5.00

We next turn to a different compound, shown below.
Task: // fetch pIC50 given entry COc1cc2c3cc1Oc1c(OC)c(OC)cc4c1[C@H](Cc1ccc(cc1)Oc1cc(ccc1C(C)=O)C[C@H]3N(C)CC2)N(C)CC4 [Compound 19]
Result: 4.30 to 4.52

---

Measured on: hNav1.5 sodium channel (Homo sapiens)
Sequence (Q14524 whole entry): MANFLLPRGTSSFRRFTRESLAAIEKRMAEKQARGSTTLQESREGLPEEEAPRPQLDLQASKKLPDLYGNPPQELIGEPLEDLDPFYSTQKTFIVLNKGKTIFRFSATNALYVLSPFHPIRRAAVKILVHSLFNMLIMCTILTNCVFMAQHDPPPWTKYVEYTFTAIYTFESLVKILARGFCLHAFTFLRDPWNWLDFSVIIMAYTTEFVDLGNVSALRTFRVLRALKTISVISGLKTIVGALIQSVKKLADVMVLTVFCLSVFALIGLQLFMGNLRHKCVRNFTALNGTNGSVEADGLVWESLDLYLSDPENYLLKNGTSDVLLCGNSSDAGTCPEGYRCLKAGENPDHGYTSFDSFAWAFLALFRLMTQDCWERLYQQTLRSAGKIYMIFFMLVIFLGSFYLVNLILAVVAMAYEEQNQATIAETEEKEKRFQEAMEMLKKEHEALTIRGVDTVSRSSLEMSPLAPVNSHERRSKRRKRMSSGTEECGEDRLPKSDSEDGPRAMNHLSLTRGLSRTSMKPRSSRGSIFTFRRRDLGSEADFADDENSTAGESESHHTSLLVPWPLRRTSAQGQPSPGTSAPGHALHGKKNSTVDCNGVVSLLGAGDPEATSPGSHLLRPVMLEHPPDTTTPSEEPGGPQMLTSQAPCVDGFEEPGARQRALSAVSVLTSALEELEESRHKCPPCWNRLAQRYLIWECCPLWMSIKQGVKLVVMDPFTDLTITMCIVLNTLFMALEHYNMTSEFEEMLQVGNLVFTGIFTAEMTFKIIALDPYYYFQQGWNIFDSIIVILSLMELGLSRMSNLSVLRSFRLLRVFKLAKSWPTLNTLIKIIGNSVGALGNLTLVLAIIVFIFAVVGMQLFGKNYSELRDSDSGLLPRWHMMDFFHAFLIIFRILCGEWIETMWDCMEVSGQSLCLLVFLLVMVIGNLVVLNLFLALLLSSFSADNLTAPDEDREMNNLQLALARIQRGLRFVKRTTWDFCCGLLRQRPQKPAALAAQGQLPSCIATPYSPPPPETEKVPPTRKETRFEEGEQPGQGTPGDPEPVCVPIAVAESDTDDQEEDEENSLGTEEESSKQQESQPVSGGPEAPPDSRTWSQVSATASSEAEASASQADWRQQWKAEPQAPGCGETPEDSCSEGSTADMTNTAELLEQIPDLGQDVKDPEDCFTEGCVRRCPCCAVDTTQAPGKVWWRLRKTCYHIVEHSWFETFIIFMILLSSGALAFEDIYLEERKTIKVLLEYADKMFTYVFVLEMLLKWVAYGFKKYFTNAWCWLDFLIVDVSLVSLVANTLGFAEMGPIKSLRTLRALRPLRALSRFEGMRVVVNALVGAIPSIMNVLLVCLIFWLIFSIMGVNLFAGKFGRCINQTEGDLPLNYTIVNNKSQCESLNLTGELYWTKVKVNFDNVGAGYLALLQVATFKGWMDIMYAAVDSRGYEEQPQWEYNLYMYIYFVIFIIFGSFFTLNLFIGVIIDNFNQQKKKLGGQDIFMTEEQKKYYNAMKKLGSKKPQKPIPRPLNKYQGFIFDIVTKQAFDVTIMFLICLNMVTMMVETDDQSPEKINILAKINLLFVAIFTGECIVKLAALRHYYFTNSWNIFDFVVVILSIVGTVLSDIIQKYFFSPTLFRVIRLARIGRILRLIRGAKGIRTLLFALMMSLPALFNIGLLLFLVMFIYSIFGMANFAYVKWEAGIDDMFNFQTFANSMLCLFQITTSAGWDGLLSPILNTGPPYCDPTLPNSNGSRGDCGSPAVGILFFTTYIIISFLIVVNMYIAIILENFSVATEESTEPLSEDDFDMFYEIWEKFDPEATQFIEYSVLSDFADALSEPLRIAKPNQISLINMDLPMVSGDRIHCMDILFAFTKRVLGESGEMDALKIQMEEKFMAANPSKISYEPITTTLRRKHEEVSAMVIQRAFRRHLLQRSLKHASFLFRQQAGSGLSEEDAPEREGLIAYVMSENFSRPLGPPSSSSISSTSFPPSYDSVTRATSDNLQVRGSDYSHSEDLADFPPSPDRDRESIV
Method description: Nav1.5 sodium channel whole-cell membrane clamp in CHL cells
Reported IC50 by item:

CCCCNC(=O)Oc1ccc2cc1Oc1ccc(cc1)C[C@H]1c3c(cc(OC)c(OC)c3Oc3cc4c(cc3OC)CCN(C)[C@@H]4C2)CCN1C    > 10 µM

Now for a further compound.
Task: Report measured IC50; entry is COc1cc2c3cc1Oc1c(OC)c(OC)cc4c1[C@H](Cc1ccc(cc1)Oc1cc(ccc1C(N)=O)C[C@H]3N(C)CC2)N(C)CC4
Result: > 50 µM

---

The following compounds are listed with their measured IC50 values.
Method description: Cytotoxicity test on Vero E6 cells (CCK8)
Format: cell-based
Setup conditions: African green monkey; Vero E6 cells, CCK8 kit

COc1ccc(NC(=O)c2ccc3cc2Oc2ccc(cc2)C[C@H]2c4c(cc(OC)c(OC)c4Oc4cc5c(cc4OC)CCN(C)[C@@H]5C3)CCN2C)cc1    10 to 30 µM
COc1cc2c3cc1Oc1c(OC)c(OC)cc4c1[C@H](Cc1ccc(cc1)Oc1cc(ccc1C(=O)NC1CCCC1)C[C@H]3N(C)CC2)N(C)CC4    10 to 30 µM
COc1cc2c3cc1Oc1c(OC)c(OC)cc4c1[C@H](Cc1ccc(cc1)Oc1cc(ccc1CO)C[C@H]3N(C)CC2)N(C)CC4    > 50 µM
COc1cc2c3cc1Oc1c(OC)c(OC)cc4c1[C@H](Cc1ccc(cc1)Oc1cc(ccc1C(=O)Nc1ccccc1)C[C@H]3N(C)CC2)N(C)CC4    10 to 30 µM
COc1cc2c3cc1Oc1c(OC)c(OC)cc4c1[C@H](Cc1ccc(cc1)Oc1cc(ccc1C(=O)Nc1cccnc1)C[C@H]3N(C)CC2)N(C)CC4    10 to 30 µM

Task: Provide only the value of recorded IC50 for COC(=O)c1ccc2cc1Oc1ccc(cc1)C[C@H]1c3c(cc(OC)c(OC)c3Oc3cc4c(cc3OC)CCN(C)[C@@H]4C2)CCN1C
Result: 30 to 50 µM

Task: Please give the documented IC50 of COc1cc2c3cc1Oc1c(OC)c(OC)cc4c1[C@H](Cc1ccc(cc1)Oc1cc(ccc1C(=O)O)C[C@H]3N(C)CC2)N(C)CC4
Result: > 50 µM

Task: Return IC50 (reported value) for this compound: COc1cc2c3cc1Oc1c(OC)c(OC)cc4c1[C@H](Cc1ccc(cc1)Oc1cc(ccc1C(=O)NC1CCC1)C[C@H]3N(C)CC2)N(C)CC4
Result: 30 to 50 µM

Task: Provide IC50 value for the following compound: CCCCCNC(=O)c1ccc2cc1Oc1ccc(cc1)C[C@H]1c3c(cc(OC)c(OC)c3Oc3cc4c(cc3OC)CCN(C)[C@@H]4C2)CCN1C
Result: 10 to 30 µM

Task: Using the record for COc1cc2c3cc1Oc1c(OC)c(OC)cc4c1[C@H](Cc1ccc(cc1)Oc1cccc(c1)C[C@H]3N(C)CC2)N(C)CC4 , state its measured IC50.
Result: 10 to 30 µM

Task: Output IC50 of COc1cc2c3cc1Oc1c(OC)c(OC)cc4c1[C@H](Cc1ccc(cc1)Oc1cc(ccc1C(=O)NCCOCCO)C[C@H]3N(C)CC2)N(C)CC4
Result: > 100 µM

Task: Tell me measured IC50 for COc1cc2c3cc1Oc1c(OC)c(OC)cc4c1[C@H](Cc1ccc(cc1)Oc1cc(ccc1C(=O)NC1CC1)C[C@H]3N(C)CC2)N(C)CC4 please.
Result: > 50 µM

Values from patent US20250296937A1
